# targetEntity: glycine transporter-1 (GlyT-1) (Homo sapiens, UniProt P48067)
# Construct: JAR cells (ATCC#HTB-144), which endogenously express GlyT-1; host or cells: JAR human choriocarcinoma cells
# Sequence (P48067 whole entry): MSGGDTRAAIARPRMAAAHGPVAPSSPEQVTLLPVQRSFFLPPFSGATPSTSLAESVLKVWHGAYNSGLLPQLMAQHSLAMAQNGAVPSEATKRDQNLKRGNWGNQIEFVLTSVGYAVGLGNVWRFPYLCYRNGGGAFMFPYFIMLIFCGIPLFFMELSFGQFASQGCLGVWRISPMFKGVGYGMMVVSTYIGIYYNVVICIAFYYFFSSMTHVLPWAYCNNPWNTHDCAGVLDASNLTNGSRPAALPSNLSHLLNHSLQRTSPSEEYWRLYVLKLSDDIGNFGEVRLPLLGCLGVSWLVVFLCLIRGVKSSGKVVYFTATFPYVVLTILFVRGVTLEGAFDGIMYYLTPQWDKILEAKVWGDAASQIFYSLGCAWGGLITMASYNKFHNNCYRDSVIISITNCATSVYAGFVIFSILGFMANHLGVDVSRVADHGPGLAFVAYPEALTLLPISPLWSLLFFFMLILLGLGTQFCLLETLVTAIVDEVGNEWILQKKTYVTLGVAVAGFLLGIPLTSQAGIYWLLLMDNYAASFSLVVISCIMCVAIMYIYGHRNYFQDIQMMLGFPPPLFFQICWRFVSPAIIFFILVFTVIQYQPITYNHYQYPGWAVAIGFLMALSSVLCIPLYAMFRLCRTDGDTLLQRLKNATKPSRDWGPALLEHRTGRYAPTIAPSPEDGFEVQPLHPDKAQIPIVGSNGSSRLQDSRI
# experimentDescription: [14C]glycine uptake assay in JAR cells endogenously expressing GlyT-1 (scintillation proximity)
# Assay type: cell-based
# measurementSetup: JAR cells, [14C]glycine 5 μM, 3 hour incubation; read-out: GlyT-1 IC50
pIC50: −log10 of the molar value. Where a name gives a salt, the structure may show the parent alone.
Kind request: treat 8 as inclusive, so pIC50 at 8 or higher is T, anything lower is F.

API: above_or_equal(metric=pIC50, cutoff=8) for item CCCS(=O)(=O)N1CCN(C2(CNC(=O)c3cccc(C)c3)CCCCC2)CC1 [compound 37, Hydrochloride]
F

For Cn1cnc(S(=O)(=O)N2CCN(C3(CNC(=O)c4ccc(C(F)(F)F)cc4Cl)CCC(F)(F)CC3)CC2)c1 [compound 171, Hydrochloride] then?
T

For CCCS(=O)(=O)N1CCN(C2(CNC(=O)c3cc(Cl)ccc3Cl)CCC(F)(F)CC2)CC1 [compound 243, Hydrochloride] then?
F
